Assay: In vivo biodistribution in mice
Design: species or system normal CD-1 male mice
Details: iv, 30 min (0.5 hr) post injection
READOUT_LABEL: Biodistribution: Skin (% dose/g)
Answer in % dose/g, number only, no unit symbol.

Fill in: Biodistribution: Skin of O=C([O-])CN(CCN(CC(=O)[O-])Cc1cc(CCC(=O)NC(P(=O)(O)O)P(=O)(O)O)ccc1[O-])Cc1cc(CCC(=O)NCCCCCC(=O)NCCCC[C@H](NC(=O)N[C@@H](CCC(=O)O)C(=O)O)C(=O)O)ccc1[O-].[68Ga+3] [[^68Ga]1g] is ___
0.65

Fill in: Biodistribution: Skin of O=C([O-])CN(CCN(CC(=O)[O-])Cc1cc(CCC(=O)N[C@@H](CC(=O)O)C(=O)O)ccc1[O-])Cc1cc(CCC(=O)NC(P(=O)(O)O)P(=O)(O)O)ccc1[O-].[68Ga+3] [[^68Ga]1e] is ___
0.86

Fill in: Biodistribution: Skin of O=C(O)CN1CCN(CC(=O)O)CCN(CC(=O)NC(P(=O)(O)O)P(=O)(O)O)CCN(CC(=O)O)CC1.[68Ga] [[^68Ga]BPAMD, reference compound] is ___
0.39

Fill in: Biodistribution: Skin of O=C([O-])CN1CCN(CC(=O)[O-])CCN(CC(=O)NCCNC(=O)CCc2ccc(O)c(CN(CCN(CC(=O)O)Cc3cc(CCC(=O)NC(P(=O)(O)O)P(=O)(O)O)ccc3O)CC(=O)O)c2)CCN(CC(=O)[O-])CC1.[177Lu+3] [[^177Lu]1h] is ___
0.41

Fill in: Biodistribution: Skin of O=C([O-])CN(CCN(CC(=O)[O-])Cc1cc(CCC(=O)NC(P(=O)(O)O)P(=O)(O)O)ccc1[O-])Cc1cc(CCC(=O)NCC(=O)O)ccc1[O-].[68Ga+3] [[^68Ga]1c] is ___
0.53
